Below, each entry is listed with its recorded Percent cleavage.
Target: AxCT mask27 EGFR EH104 L073 version 1

Below, each entry is followed by its recorded Percent cleavage result.
{"columns": ["protein", "measured result"],
 "data": [
  ["MMP-7 (protein) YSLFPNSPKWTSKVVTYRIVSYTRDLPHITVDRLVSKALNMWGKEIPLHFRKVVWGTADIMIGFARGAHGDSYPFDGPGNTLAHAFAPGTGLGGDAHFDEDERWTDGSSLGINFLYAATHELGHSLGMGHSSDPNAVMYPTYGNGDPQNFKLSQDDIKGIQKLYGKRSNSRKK", "27%"],
  ["MMP-1 (protein) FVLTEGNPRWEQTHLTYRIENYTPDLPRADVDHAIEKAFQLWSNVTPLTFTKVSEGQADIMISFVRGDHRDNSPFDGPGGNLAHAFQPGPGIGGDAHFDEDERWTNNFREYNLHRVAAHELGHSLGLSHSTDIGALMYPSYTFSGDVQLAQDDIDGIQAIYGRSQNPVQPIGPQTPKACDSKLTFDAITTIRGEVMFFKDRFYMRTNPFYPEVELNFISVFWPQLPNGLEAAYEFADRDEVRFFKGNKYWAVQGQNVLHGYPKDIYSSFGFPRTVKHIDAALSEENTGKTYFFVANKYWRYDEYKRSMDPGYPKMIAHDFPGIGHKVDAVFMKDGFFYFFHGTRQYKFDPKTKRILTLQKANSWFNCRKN", "0%"],
  ["MMP-12 (protein) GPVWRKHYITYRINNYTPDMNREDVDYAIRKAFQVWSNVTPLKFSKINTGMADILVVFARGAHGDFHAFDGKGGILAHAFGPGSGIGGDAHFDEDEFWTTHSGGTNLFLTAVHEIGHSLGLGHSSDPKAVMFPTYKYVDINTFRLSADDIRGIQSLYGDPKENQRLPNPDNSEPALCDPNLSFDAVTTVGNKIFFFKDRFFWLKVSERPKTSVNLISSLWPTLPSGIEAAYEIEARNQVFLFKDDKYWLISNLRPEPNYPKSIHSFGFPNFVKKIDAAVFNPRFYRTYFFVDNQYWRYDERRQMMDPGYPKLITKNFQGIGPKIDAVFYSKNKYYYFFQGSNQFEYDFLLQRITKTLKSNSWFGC", "31%"],
  ["Cathepsin G (protein) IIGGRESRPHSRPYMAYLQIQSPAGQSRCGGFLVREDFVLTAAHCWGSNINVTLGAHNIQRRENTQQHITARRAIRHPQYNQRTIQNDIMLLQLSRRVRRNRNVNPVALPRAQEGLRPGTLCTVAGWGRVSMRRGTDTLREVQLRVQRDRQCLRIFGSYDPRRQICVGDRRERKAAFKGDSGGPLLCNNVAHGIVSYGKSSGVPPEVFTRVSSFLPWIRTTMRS", "0%"],
  ["Matriptase (protein) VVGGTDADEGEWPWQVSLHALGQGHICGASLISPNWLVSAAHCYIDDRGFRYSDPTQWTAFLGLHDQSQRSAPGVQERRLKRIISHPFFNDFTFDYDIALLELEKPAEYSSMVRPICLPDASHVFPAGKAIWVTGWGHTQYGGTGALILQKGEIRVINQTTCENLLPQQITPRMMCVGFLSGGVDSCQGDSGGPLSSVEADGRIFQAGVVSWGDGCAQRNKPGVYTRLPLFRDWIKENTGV", "0%"]
]}

## Input Assign Percent cleavage to the following record: Neutrophil Elastase (protein) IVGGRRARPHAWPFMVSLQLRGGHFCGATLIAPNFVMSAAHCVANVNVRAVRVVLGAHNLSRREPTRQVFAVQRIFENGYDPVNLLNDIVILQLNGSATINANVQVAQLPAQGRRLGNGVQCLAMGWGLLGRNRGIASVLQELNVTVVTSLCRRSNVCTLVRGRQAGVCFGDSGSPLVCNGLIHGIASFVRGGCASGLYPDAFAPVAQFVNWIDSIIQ
## Output 9%
